Cited source for all entries: ChEMBL document CHEMBL3632591

- assayDetails: Half life in CD-1 mouse at 2 mg/kg, iv administered as single dose measured after 24 hrs
- Type: ADME, organism-based
- conditionSet: in vivo
metric: half-life (h)
Answer format: numeric, h implied, no suffix.

Recorded half-life of COc1ccc2c(O[C@H]3CCN4C(=O)N(C)CCCCC=C[C@@H]5C[C@@]5(C(=O)NS(=O)(=O)C5(C)CC5)NC(=O)[C@@H]4C3)cc(-c3nc(C(F)(F)F)cs3)nc2c1C , please. 6.3

---

Reported AUC(0-inf) is given for each of the following compounds.
- assayDetails: AUC (infinity) in Sprague-Dawley rat at 2 mg/kg, iv administered as single dose
- Type: ADME, organism-based
- Set-up: dose 2 mg/kg, route intravenous, time infinity
- conditionSet: in vivo
Answer format: numeric, ng·h/mL implied, no suffix.

Recorded AUC(0-inf) of COc1ccc2c(O[C@H]3C[C@H]4C(=O)N(C)CCCC/C=C/[C@@H]5C[C@@]5(C(=O)NS(=O)(=O)C5(C)CC5)NC(=O)N4C3)cc(-c3nc(C(F)(F)F)cs3)nc2c1C , please. 2570

Continuing:
Recorded AUC(0-inf) of COc1ccc2c(O[C@H]3CCN4C(=O)N(C)CCCCC=C[C@@H]5C[C@@]5(C(=O)NS(=O)(=O)C5(C)CC5)NC(=O)[C@@H]4C3)cc(-c3nc(C(F)(F)F)cs3)nc2c1C , please. 1770
